tested on: MOLT-4; assay: NCI tumour cell line growth inhibition, 48 h
Activity calls are given as the source filed them. Cut-off read from the data, not from the text of the source: active = GI50 up to about 1.1 µM and inactive = higher.
Classes used: Yes = active, No = inactive

[[record]]
compound = "C=CCc1cc(OC)c2c(c1)C(OC(C)=O)CC(c1ccc(OC)c(OC)c1)O2 (stereo unspecified)"
label = "No"

[[record]]
compound = "COc1ccc(NCc2cnc3nc(N)nc(N)c3c2C)cc1"
label = "Yes"

[[record]]
compound = "CCCCCc1cc2cc3c(c(O)c2c(=O)[nH]1)C1(CCC3)C(=O)c2c(O)ccc(O)c2C1=O"
label = "No"

[[record]]
compound = "CC[C@@]1(O)C(=O)OCc2c1cc1n(c2=O)Cc2c-1nc1ccccc1c2CC[Si](C)(C)C"
label = "Yes"

[[record]]
compound = "CN(CC1NCCCC1O)C12CC3CC(CC(C3)C1)C2 (stereo unspecified)"
label = "No"

[[record]]
compound = "Nc1nc(N)c(-c2cccc(C(F)(F)F)c2)c(Cc2cccc(C(F)(F)F)c2)n1"
label = "No"

[[record]]
compound = "CC1(C(O)c2ccccc2)CN(C(C)(C)C)C(=O)/C1=C\\Sc1ccccc1 (stereo unspecified)"
label = "No"

[[record]]
compound = "CSC1=NN(C(C)=O)C(C(OC(C)=O)C(OC(C)=O)C(OC(C)=O)C(COC(C)=O)OC(C)=O)S1 (stereo unspecified)"
label = "No"

[[record]]
compound = "O=C1C([P+](c2ccccc2)(c2ccccc2)c2ccccc2)=C([O-])C(=Cc2ccc(Cl)c(Cl)c2)C([O-])=C1[P+](c1ccccc1)(c1ccccc1)c1ccccc1"
label = "Yes"

[[record]]
compound = "CCN(CC)c1nc(NC2CCCCC2)c2nc(N(CC)CC)nc(NC3CCCCC3)c2n1"
label = "No"

[[record]]
compound = "c1ccc(/N=C2\\C(=N/c3ccccc3)N(C3CCCCC3)/C(=N\\C3CCCCC3)N2c2ccccc2)cc1"
label = "No"

[[record]]
compound = "COc1ccc2c(c1)[n+]([O-])c(/C(C)=N/NC(=O)CC#N)c[n+]2[O-]"
label = "No"

[[record]]
compound = "CSc1ccc2c(cc1=O)[C@@H](NC(C)=O)CCc1cc(O)c(O)c(O)c1-2"
label = "No"

[[record]]
compound = "CC(=O)NC1C(OCc2ccccc2)OC(CO)C(O)C1OC(C)C(=O)N[C@@H](C)C(=O)N[C@H](CCC(=O)NCCNCCNc1c2ccccc2nc2cccc([N+](=O)[O-])c12)C(N)=O (stereo partly specified)"
label = "Yes"

[[record]]
compound = "CC(C)[C@@H]1CC[C@@H](C)C[C@H]1OC(=O)/C=C1/C2C=CC(O2)C1C(=O)O[C@@H]1C[C@H](C)CC[C@H]1C(C)C (stereo partly specified)"
label = "No"

[[record]]
compound = "O=C(CCCC(=O)N1CC(CCl)c2ccc([N+](=O)[O-])cc21)N1CC(CCl)c2ccc([N+](=O)[O-])cc21 (stereo unspecified)"
label = "No"

[[record]]
compound = "CN(C)NC(=O)NC12CC3CC(CC(C3)C1)C2"
label = "No"

[[record]]
compound = "O=C(NC1CCCCC1NC(c1ccccc1)(c1ccccc1)c1ccccc1)C(=O)NC1CCCCC1NC(c1ccccc1)(c1ccccc1)c1ccccc1 (stereo unspecified)"
label = "No"

[[record]]
compound = "O=C(c1c(F)c(F)c(F)c(F)c1F)n1c(O)nc2ccccc21"
label = "No"

[[record]]
compound = "Nc1ncnc2c1ncn2C1CCC(CO)O1 (stereo unspecified)"
label = "No"

[[record]]
compound = "COC(=O)C(=O)C(C(=O)C(=O)Nc1cc([N+](=O)[O-])ccc1C#N)c1nc2ccccc2nc1O (stereo unspecified)"
label = "No"


Hey, just so you know, these numbers are from ChEMBL document CHEMBL1201862.
